# target: Recombinant human TDO (Homo sapiens, UniProt P48775)
# methodDescription: hTDO biochemical coupled assay
# experimentalContext: 330 μM L-tryptophan, coupled with kynurenine formamidase
# Procedure: Exemplary compounds of the invention were prepared, and tested to determine their effect as TDO and/or IDO inhibitors. […] This coupled enzyme system allowed conversion of N-formylkynurenine produced by TDO or IDO activity to kynurenine which was then quantified by fluorescence following addition of Erhlich's Reagent The protocols for these are set out below. […]
parameter: hTDO biochemical assay pIC50

compoundSmiles: O=C(c1cccs1)N1CCC(c2c[nH]c3ccccc23)CC1
hTDO biochemical assay pIC50: +− (+− = pIC50 <4.00)
//
compoundSmiles: CC(=O)N1CC=C(c2c[nH]c3c(F)cccc23)CC1
hTDO biochemical assay pIC50: + (+ = pIC50 4.00-4.99)
//
compoundSmiles: COc1cccc2[nH]cc(C3=CCN(S(C)(=O)=O)CC3)c12
hTDO biochemical assay pIC50: + (+ = pIC50 4.00-4.99)
//
compoundSmiles: COC(=O)c1ccccc1S(=O)(=O)N1CCC(c2c[nH]c3ccc(C#N)cc23)CC1
hTDO biochemical assay pIC50: +− (+− = pIC50 <4.00)

Identify the reported hTDO biochemical assay pIC50 for the following entry. CS(=O)(=O)N1CC=C(c2c[nH]c3ccc(Cl)cc23)CC1 + (+ = pIC50 4.00-4.99)

Identify the reported hTDO biochemical assay pIC50 for the following entry. CS(=O)(=O)N1CCC(c2c[nH]c3cnccc23)CC1 +− (+− = pIC50 <4.00)

Identify the reported hTDO biochemical assay pIC50 for the following entry. Cc1ccc2[nH]cc(C3CCN(S(=O)(=O)c4ccccc4OC(F)(F)F)CC3)c2c1 +− (+− = pIC50 <4.00)

* * *

# target: TDO (A172 human glioblastoma cells) (Homo sapiens)
# Construct: This assay utilised cancer cells which expressed either TDO or IDO; endogenous in cells; host or cells: A172 human glioblastoma cells
# Sequence (P48775 whole entry): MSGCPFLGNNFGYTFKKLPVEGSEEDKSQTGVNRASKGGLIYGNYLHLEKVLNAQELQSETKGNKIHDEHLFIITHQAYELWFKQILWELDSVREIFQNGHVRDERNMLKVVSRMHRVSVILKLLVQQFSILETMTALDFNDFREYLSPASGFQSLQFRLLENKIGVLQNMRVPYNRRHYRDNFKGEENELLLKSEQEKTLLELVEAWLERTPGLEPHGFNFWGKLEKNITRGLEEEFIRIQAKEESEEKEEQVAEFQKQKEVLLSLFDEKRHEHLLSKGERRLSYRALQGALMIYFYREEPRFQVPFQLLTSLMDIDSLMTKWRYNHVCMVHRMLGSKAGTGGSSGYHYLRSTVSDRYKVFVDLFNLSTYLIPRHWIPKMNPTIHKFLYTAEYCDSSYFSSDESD
# methodDescription: A172 Kynurenine cell based assay
# experimentalContext: 500 μM L-tryptophan, 48 hours, kynurenine by Erhlich's reagent

compoundSmiles: CS(=O)(=O)N1CCC(c2c[nH]c3cc(F)cc(F)c23)CC1
A172 Kynurenine cell based assay pIC50: + (+ = pIC50 4.00-4.99)
//
compoundSmiles: COc1ccc(Br)cc1S(=O)(=O)N1CCC(c2c[nH]c3ccc(F)cc23)CC1
A172 Kynurenine cell based assay pIC50: + (+ = pIC50 4.00-4.99)
//
compoundSmiles: O=S(=O)(c1ccccc1Br)N1CCC(c2c[nH]c3ccccc23)CC1
A172 Kynurenine cell based assay pIC50: + (+ = pIC50 4.00-4.99)

* * *

# target: IDO (SKOV3 human ovarian adenocarcinoma cells, IFN-γ induced) (Homo sapiens, UniProt P14902)
# Construct: IDO expression was induced in the SKOV3 cells by the addition of 500 ng/ml IFN-γ; endogenous in cells; host or cells: SKOV3 human ovarian adenocarcinoma cells, induced with IFN-γ
# Sequence (P14902 whole entry): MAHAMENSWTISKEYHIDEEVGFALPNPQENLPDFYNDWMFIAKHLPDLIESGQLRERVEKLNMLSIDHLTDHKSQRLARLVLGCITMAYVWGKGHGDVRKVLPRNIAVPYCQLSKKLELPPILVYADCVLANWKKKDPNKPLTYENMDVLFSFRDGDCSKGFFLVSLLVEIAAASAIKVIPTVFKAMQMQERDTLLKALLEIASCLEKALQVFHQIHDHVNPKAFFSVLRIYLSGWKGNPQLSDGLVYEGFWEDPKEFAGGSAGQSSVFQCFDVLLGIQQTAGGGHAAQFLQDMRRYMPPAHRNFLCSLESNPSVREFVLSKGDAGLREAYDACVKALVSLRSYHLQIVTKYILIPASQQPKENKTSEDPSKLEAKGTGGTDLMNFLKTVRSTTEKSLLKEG
# methodDescription: SKOV3 Kynurenine cell based assay
# experimentalContext: IDO induced by 500 ng/ml IFN-γ, 500 μM L-tryptophan, 48 hours
parameter: SKOV3 Kynurenine cell based assay pIC50

Examples with answers:
compound: CS(=O)(=O)N1CC=C(c2c[nH]c3cc(F)c(Cl)cc23)CC1
SKOV3 Kynurenine cell based assay pIC50: + (+ = pIC50 4.00-4.99)
--
compound: Cc1ccc2[nH]cc(C3CCN(S(=O)(=O)c4cccc(Cl)c4C)CC3)c2c1
SKOV3 Kynurenine cell based assay pIC50: + (+ = pIC50 4.00-4.99)
--
compound: CC(=O)N1CCC(c2c[nH]c3ccccc23)CC1
SKOV3 Kynurenine cell based assay pIC50: + (+ = pIC50 4.00-4.99)
--
compound: CCOC(=O)N1CCC(c2c[nH]c3ccccc23)CC1
SKOV3 Kynurenine cell based assay pIC50: + (+ = pIC50 4.00-4.99)

Identify the reported SKOV3 Kynurenine cell based assay pIC50 for the following entry. CN1CCN(c2c[nH]c3ccccc23)CC1=O +− (+− = pIC50 <4.00)

Identify the reported SKOV3 Kynurenine cell based assay pIC50 for the following entry. O=C1CCC2CN(c3c[nH]c4ccccc34)CCN12 (stereo not shown) +− (+− = pIC50 <4.00)

Identify the reported SKOV3 Kynurenine cell based assay pIC50 for the following entry. CC(=O)N1CCC(c2c[nH]c3cc(OCc4ccccc4)ccc23)CC1 + (+ = pIC50 4.00-4.99)

Identify the reported SKOV3 Kynurenine cell based assay pIC50 for the following entry. COc1ccc2[nH]cc(C3CCN(S(=O)(=O)c4ccc(C(F)(F)F)cc4Cl)CC3)c2c1 + (+ = pIC50 4.00-4.99)

Identify the reported SKOV3 Kynurenine cell based assay pIC50 for the following entry. CCn1ncc(S(=O)(=O)N2CCC3(CC2)C(=O)Nc2ccccc23)c1C + (+ = pIC50 4.00-4.99)

Identify the reported SKOV3 Kynurenine cell based assay pIC50 for the following entry. CC(=O)N1CCC(c2c[nH]c3ccc(C(F)(F)F)cc23)CC1 + (+ = pIC50 4.00-4.99)

Identify the reported SKOV3 Kynurenine cell based assay pIC50 for the following entry. CS(=O)(=O)N1CC=C(c2c[nH]c3ccc(Cl)cc23)CC1 + (+ = pIC50 4.00-4.99)

Identify the reported SKOV3 Kynurenine cell based assay pIC50 for the following entry. CC(=O)N1CC=C(c2c[nH]c3c(F)cccc23)CC1 +− (+− = pIC50 <4.00)

Identify the reported SKOV3 Kynurenine cell based assay pIC50 for the following entry. COc1ccc(Br)cc1S(=O)(=O)N1CCC(c2c[nH]c3ccc(F)cc23)CC1 + (+ = pIC50 4.00-4.99)

Identify the reported SKOV3 Kynurenine cell based assay pIC50 for the following entry. O=S(=O)(c1ccccc1Br)N1CCC(c2c[nH]c3ccccc23)CC1 + (+ = pIC50 4.00-4.99)

Identify the reported SKOV3 Kynurenine cell based assay pIC50 for the following entry. CN(C)CC(=O)N1CCC(c2c[nH]c3ccccc23)CC1 +− (+− = pIC50 <4.00)

* * *

# target: Recombinant human TDO (Homo sapiens)
# methodDescription: hTDO biochemical coupled assay
# experimentalContext: 330 μM L-tryptophan, coupled with kynurenine formamidase
parameter: hTDO biochemical assay pIC50

compound: Cc1ccc2[nH]cc(C3CCN(S(=O)(=O)c4cc(C)c(Cl)cc4Cl)CC3)c2c1 [Compound 31]
hTDO biochemical assay pIC50: +− (+− = pIC50 <4.00)
//
compound: Cc1cccc2c(C3CCN(C(=O)c4ccccc4OC(F)(F)F)CC3)c[nH]c12 [Compound 59]
hTDO biochemical assay pIC50: +− (+− = pIC50 <4.00)
//
compound: NS(=O)(=O)N1CCC(c2c[nH]c3cc(F)ccc23)CC1 [Compound 249]
hTDO biochemical assay pIC50: + (+ = pIC50 4.00-4.99)
//
compound: CS(=O)(=O)N1CCC(c2c[nH]c3cccc(F)c23)CC1 [Compound 95]
hTDO biochemical assay pIC50: +− (+− = pIC50 <4.00)
//
compound: CCOC(=O)N1CCC(c2c[nH]c3ccccc23)CC1 [Compound 66]
hTDO biochemical assay pIC50: +− (+− = pIC50 <4.00)

Identify the reported hTDO biochemical assay pIC50 for the following entry. CS(=O)(=O)N1CCC(c2c[nH]c3cc(F)ccc23)CC1 [Compound 22] + (+ = pIC50 4.00-4.99)

Identify the reported hTDO biochemical assay pIC50 for the following entry. CNS(=O)(=O)N1CCN(c2c[nH]c3ccccc23)CC1 [Compound 295] + (+ = pIC50 4.00-4.99)

Identify the reported hTDO biochemical assay pIC50 for the following entry. COCCS(=O)(=O)N1CCC(c2c[nH]c3cc(F)ccc23)CC1 [Compound 285] + (+ = pIC50 4.00-4.99)

Identify the reported hTDO biochemical assay pIC50 for the following entry. CNS(=O)(=O)N1CCC(c2c[nH]c3cc(F)ccc23)CC1 [Compound 257] + (+ = pIC50 4.00-4.99)

Identify the reported hTDO biochemical assay pIC50 for the following entry. Cn1cc(S(=O)(=O)N2CCC(c3c[nH]c4cc(F)ccc34)CC2)cn1 [Compound 286] + (+ = pIC50 4.00-4.99)

Identify the reported hTDO biochemical assay pIC50 for the following entry. O=C(CO)N1CCC(c2c[nH]c3cc(F)ccc23)CC1 [Compound 269] + (+ = pIC50 4.00-4.99)

Identify the reported hTDO biochemical assay pIC50 for the following entry. CNS(=O)(=O)N1CC=C(c2c[nH]c3cc(F)ccc23)CC1 [Compound 256] + (+ = pIC50 4.00-4.99)

Identify the reported hTDO biochemical assay pIC50 for the following entry. Cc1cccc2c(C3CCN(C(=O)c4ccc(F)c(C(F)(F)F)c4)CC3)c[nH]c12 [Compound 54] +− (+− = pIC50 <4.00)

Identify the reported hTDO biochemical assay pIC50 for the following entry. CCCCS(=O)(=O)N1CC=C(c2c[nH]c3cc(F)ccc23)CC1 [Compound 18] + (+ = pIC50 4.00-4.99)
